target: Proteasome subunit beta (Trypanosoma cruzi) (UniProt O96673); assay: Trypanosoma cruzi proteasome chymotrypsin-like activity (TcProtChymo) assay.; type: functional; parameters: scale not given: in the data most compounds retested in dose-response had high values; conditions: 9.37 µM
Sequence (O96673 as listed by the source): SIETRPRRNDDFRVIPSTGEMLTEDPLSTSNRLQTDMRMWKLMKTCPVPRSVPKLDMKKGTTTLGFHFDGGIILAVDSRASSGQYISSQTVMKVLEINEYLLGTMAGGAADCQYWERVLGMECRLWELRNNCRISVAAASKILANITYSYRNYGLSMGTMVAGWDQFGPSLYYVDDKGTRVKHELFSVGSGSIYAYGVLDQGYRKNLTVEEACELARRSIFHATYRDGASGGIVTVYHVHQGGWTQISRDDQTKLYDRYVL

>  <compound>
CN(C)C(C(=O)N1CCCC1)c1ccccc1F (centres undefined)

>  <system-tested>
Proteasome subunit beta (Trypanosoma cruzi) (UniProt O96673)

>  <unit-abbreviation>
%

>  <Percent Effect>
4.74

$$$$
>  <compound>
O=C(Cc1c[nH]c2ccccc12)N1CCC(Nc2cccnn2)CC1

>  <system-tested>
Proteasome subunit beta (Trypanosoma cruzi) (UniProt O96673)

>  <unit-abbreviation>
%

>  <Percent Effect>
5.96

$$$$
>  <compound>
Cc1nccc(N2CCC(=O)N(Cc3ccc(F)cc3)C(C(C)C)C2)n1 (centres undefined)

>  <system-tested>
Proteasome subunit beta (Trypanosoma cruzi) (UniProt O96673)

>  <unit-abbreviation>
%

>  <Percent Effect>
4.56

$$$$
>  <compound>
Cc1nc(C)n(C2CCCN(C(=O)Cc3cccnc3)C2)n1 (centres undefined)

>  <system-tested>
Proteasome subunit beta (Trypanosoma cruzi) (UniProt O96673)

>  <unit-abbreviation>
%

>  <Percent Effect>
6.17

$$$$
>  <compound>
Cc1cnn(C2CCCN(C(=O)CCCOc3cccc(F)c3)C2)c1 (centres undefined)

>  <system-tested>
Proteasome subunit beta (Trypanosoma cruzi) (UniProt O96673)

>  <unit-abbreviation>
%

>  <Percent Effect>
0

$$$$
>  <compound>
O=C(CCNc1ncccn1)N1CCCC(n2ccnc2)C1 (centres undefined)

>  <system-tested>
Proteasome subunit beta (Trypanosoma cruzi) (UniProt O96673)

>  <unit-abbreviation>
%

>  <Percent Effect>
9.78

$$$$
>  <compound>
O=C(O)c1nnn(Cc2cccc(C(F)(F)F)c2)c1-c1cccnc1

>  <system-tested>
Proteasome subunit beta (Trypanosoma cruzi) (UniProt O96673)

>  <unit-abbreviation>
%

>  <Percent Effect>
8.5

$$$$
>  <compound>
Cc1nc(C2CCN(C(=O)CO)CC2)cc(N2CCOCC2)n1

>  <system-tested>
Proteasome subunit beta (Trypanosoma cruzi) (UniProt O96673)

>  <unit-abbreviation>
%

>  <Percent Effect>
8.22

$$$$
>  <compound>
CSC(C)C(=O)N1CCCN(Cc2cnn(C(C)C)c2)CC1 (centres undefined)

>  <system-tested>
Proteasome subunit beta (Trypanosoma cruzi) (UniProt O96673)

>  <unit-abbreviation>
%

>  <Percent Effect>
19.1

$$$$
>  <compound>
Cc1ccc([C@@H]2CN(S(=O)(=O)N(C)C)C[C@H]2N(C)C)cc1

>  <system-tested>
Proteasome subunit beta (Trypanosoma cruzi) (UniProt O96673)

>  <unit-abbreviation>
%

>  <Percent Effect>
8.84

$$$$
>  <compound>
Cc1cc(C(=O)N2CC[C@@H]3CN(S(C)(=O)=O)CCO[C@@H]3C2)c(C)o1

>  <system-tested>
Proteasome subunit beta (Trypanosoma cruzi) (UniProt O96673)

>  <unit-abbreviation>
%

>  <Percent Effect>
25.6

$$$$
>  <compound>
O=C(NCc1cc[nH]n1)NCC(c1ccco1)N1CCCC1 (centres undefined)

>  <system-tested>
Proteasome subunit beta (Trypanosoma cruzi) (UniProt O96673)

>  <unit-abbreviation>
%

>  <Percent Effect>
12.4

$$$$
>  <compound>
COCC(=O)N1CC[C@@H](O)[C@@H]1Cc1ccccc1

>  <system-tested>
Proteasome subunit beta (Trypanosoma cruzi) (UniProt O96673)

>  <unit-abbreviation>
%

>  <Percent Effect>
6.27

$$$$
>  <compound>
CC(=O)N1CCN(C(=O)C2SCCc3sccc32)CC1 (centres undefined)

>  <system-tested>
Proteasome subunit beta (Trypanosoma cruzi) (UniProt O96673)

>  <unit-abbreviation>
%

>  <Percent Effect>
2.11

$$$$
>  <compound>
CC(=O)N1CCC(Cc2cnc(-c3c(C)nn(C)c3C)cn2)C1 (centres undefined)

>  <system-tested>
Proteasome subunit beta (Trypanosoma cruzi) (UniProt O96673)

>  <unit-abbreviation>
%

>  <Percent Effect>
2.2

$$$$
>  <compound>
COc1ccc2c(c1)OCC(CNC(=O)c1ccc(=O)n(C)c1)C2 (centres undefined)

>  <system-tested>
Proteasome subunit beta (Trypanosoma cruzi) (UniProt O96673)

>  <unit-abbreviation>
%

>  <Percent Effect>
12.5

$$$$
>  <compound>
Clc1ccc(-n2cc(CNC3CCc4ncnn4C3)cn2)cc1 (centres undefined)

>  <system-tested>
Proteasome subunit beta (Trypanosoma cruzi) (UniProt O96673)

>  <unit-abbreviation>
%

>  <Percent Effect>
10.6

$$$$
>  <compound>
Cn1cc(C2COC3(CCN(C(=O)c4ccc(F)cc4)CC3)C2)cn1 (centres undefined)

>  <system-tested>
Proteasome subunit beta (Trypanosoma cruzi) (UniProt O96673)

>  <unit-abbreviation>
%

>  <Percent Effect>
19.9

$$$$
>  <compound>
CC(C)c1nnc2n1CCN(C(=O)c1cccc(C(F)(F)F)c1)C2

>  <system-tested>
Proteasome subunit beta (Trypanosoma cruzi) (UniProt O96673)

>  <unit-abbreviation>
%

>  <Percent Effect>
6.19

$$$$
>  <compound>
Cc1nc(-c2ccsc2)ccc1C(=O)NCCN1CCOCC1

>  <system-tested>
Proteasome subunit beta (Trypanosoma cruzi) (UniProt O96673)

>  <unit-abbreviation>
%

>  <Percent Effect>
8.02

$$$$
>  <compound>
CC(C)(C)c1noc(CN2CCCN(Cc3cccs3)CC2)n1

>  <system-tested>
Proteasome subunit beta (Trypanosoma cruzi) (UniProt O96673)

>  <unit-abbreviation>
%

>  <Percent Effect>
1.69

$$$$
>  <compound>
COCCN1CCCC1c1nccnc1Nc1nc(C)cs1 (centres undefined)

>  <system-tested>
Proteasome subunit beta (Trypanosoma cruzi) (UniProt O96673)

>  <unit-abbreviation>
%

>  <Percent Effect>
7.55

$$$$
>  <compound>
COc1ccc(-c2noc(CN3CCOCC3C)n2)cc1OC (centres undefined)

>  <system-tested>
Proteasome subunit beta (Trypanosoma cruzi) (UniProt O96673)

>  <unit-abbreviation>
%

>  <Percent Effect>
8.83

$$$$
>  <compound>
CN(C)Cc1nc(C(C)(C)NC(=O)C2CC(=O)N(CC3CC3)C2)no1 (centres undefined)

>  <system-tested>
Proteasome subunit beta (Trypanosoma cruzi) (UniProt O96673)

>  <unit-abbreviation>
%

>  <Percent Effect>
-3.77

$$$$
